Test: Tasting of a sample of the purified compound (taste perceived, sweetness relative to sucrose)
Details: tasted at a concentration of 250 ppm
READOUT_KIND: taste perceived

{"COMPOUND": "CC(C)(O)[C@@H](CC[C@](C)(O)[C@H]1CC[C@@]2(C)[C@@H]3CC=C4[C@@H](CC[C@H](O[C@@H]5O[C@H](CO[C@@H]6O[C@H](CO)[C@@H](O)[C@H](O)[C@H]6O)[C@@H](O)[C@H](O)[C@H]5O)C4(C)C)[C@]3(C)[C@H](O)C[C@]12C)O[C@@H]1O[C@H](CO[C@@H]2O[C@H](CO)[C@@H](O)[C@H](O)[C@H]2O)[C@@H](O)[C@H](O)[C@H]1O[C@@H]1O[C@H](CO)[C@@H](O)[C@H](O)[C@H]1O [Compound 7a]", "READOUT_KIND": "taste perceived", "VALUE_OBSERVED": "No taste"}
{"COMPOUND": "C[C@H](C(O)C[C@@H](O[C@@H]1O[C@H](CO[C@@H]2O[C@H](CO)[C@@H](O)[C@H](O)[C@H]2O)[C@@H](O)[C@H](O)[C@H]1O)C(C)(C)O)[C@H]1CC[C@@]2(C)[C@@H]3CC=C4[C@@H](CC[C@H](O[C@@H]5O[C@H](CO[C@@H]6O[C@H](CO)[C@@H](O)[C@H](O)[C@H]6O)[C@@H](O)[C@H](O)[C@H]5O)C4(C)C)[C@]3(C)[C@H](O)C[C@]12C (stereo partly drawn) [Compound 1a]", "READOUT_KIND": "taste perceived", "VALUE_OBSERVED": "No taste"}
{"COMPOUND": "CC(C)(O)[C@@H](CC[C@](C)(O)[C@H]1CC[C@@]2(C)[C@@H]3CC=C4[C@@H](CC[C@H](O[C@@H]5O[C@H](CO)[C@@H](O)[C@H](O)[C@H]5O)C4(C)C)[C@]3(C)C(=O)C[C@]12C)O[C@@H]1O[C@H](CO[C@@H]2O[C@H](CO)[C@@H](O)[C@H](O)[C@H]2O)[C@@H](O)[C@H](O)[C@H]1O [Compound 8a]", "READOUT_KIND": "taste perceived", "VALUE_OBSERVED": "No taste"}

* * *

Experiment: Tasting of a sample of the purified compound (taste perceived, sweetness relative to sucrose)
Conditions: tasted at a concentration of 250 ppm

{"COMPOUND": "C[C@H](CC[C@@H](O[C@@H]1O[C@H](CO[C@@H]2O[C@H](CO)[C@@H](O)[C@H](O)[C@H]2O)[C@@H](O)[C@H](O)[C@H]1O[C@@H]1O[C@H](CO)[C@@H](O[C@@H]2O[C@H](CO)[C@@H](O)[C@H](O)[C@H]2O)[C@H](O)[C@H]1O)C(C)(C)O)[C@H]1CC[C@@]2(C)[C@@H]3CC=C4[C@@H](CC[C@H](O[C@@H]5O[C@H](CO[C@@H]6O[C@H](CO)[C@@H](O)[C@H](O)[C@H]6O)[C@@H](O)[C@H](O)[C@H]5O)C4(C)C)[C@]3(C)[C@H](O)C[C@]12C [Compound 12a]", "taste perceived": "moderate sweet taste"}
{"COMPOUND": "C[C@H](CC[C@@H](O[C@@H]1O[C@H](CO[C@@H]2O[C@H](CO)[C@@H](O)[C@H](O)[C@H]2O)[C@@H](O)[C@H](O)[C@H]1O[C@@H]1O[C@H](CO)[C@@H](O)[C@H](O)[C@H]1O)C(C)(C)O)[C@H]1CC[C@@]2(C)[C@@H]3CC=C4[C@@H](CC[C@H](O[C@@H]5O[C@H](CO[C@@H]6O[C@H](CO)[C@@H](O)[C@H](O)[C@H]6O)[C@@H](O)[C@H](O)[C@H]5O[C@@H]5O[C@H](CO)[C@@H](O)[C@H](O)[C@H]5O)C4(C)C)[C@]3(C)[C@H](O)C[C@]12C (stereo in doubt) [Compound 14a]", "taste perceived": "No taste"}
{"COMPOUND": "C[C@H](C(O)C[C@@H](O[C@@H]1O[C@H](CO[C@@H]2O[C@H](CO)[C@@H](O)[C@H](O)[C@H]2O)[C@@H](O)[C@H](O)[C@H]1O)C(C)(C)O)[C@H]1CC[C@@]2(C)[C@@H]3CC=C4[C@@H](CC[C@H](O[C@@H]5O[C@H](CO)[C@@H](O)[C@H](O)[C@H]5O)C4(C)C)[C@]3(C)[C@@H](O)C[C@]12C (some centres unmarked)", "taste perceived": "No taste"}
{"COMPOUND": "C[C@H](CC[C@@H](O[C@@H]1O[C@H](CO[C@@H]2O[C@H](CO[C@@H]3O[C@H](CO)[C@@H](O)[C@H](O)[C@H]3O)[C@@H](O)[C@H](O)[C@H]2O)[C@@H](O)[C@H](O)[C@H]1O[C@@H]1O[C@H](CO)[C@@H](O)[C@H](O)[C@H]1O)C(C)(C)O)[C@H]1CC[C@@]2(C)[C@@H]3CC=C4[C@@H](CC[C@H](O[C@@H]5O[C@H](CO[C@@H]6O[C@H](CO)[C@@H](O)[C@H](O)[C@H]6O)[C@@H](O)[C@H](O)[C@H]5O)C4(C)C)[C@]3(C)[C@H](O)C[C@]12C [Compound 13a]", "taste perceived": "moderate sweet taste"}
{"COMPOUND": "CC(C)(O)[C@@H](CC[C@](C)(O)[C@H]1CC[C@@]2(C)[C@@H]3CC=C4[C@@H](CC[C@H](O[C@@H]5O[C@H](CO[C@@H]6O[C@H](CO)[C@@H](O)[C@H](O)[C@H]6O)[C@@H](O)[C@H](O)[C@H]5O[C@@H]5O[C@H](CO)[C@@H](O)[C@H](O)[C@H]5O)C4(C)C)[C@]3(C)C(=O)C[C@]12C)O[C@@H]1O[C@H](CO[C@@H]2O[C@H](CO)[C@@H](O)[C@H](O)[C@H]2O)[C@@H](O)[C@H](O)[C@H]1O", "taste perceived": "No taste"}
